# System: RPMI-8226 leukemia
# assay details: NCI-60 one-dose screen, 48 h (100 = growth as untreated, 0 = no growth, -100 = all killed)
# experimental context: 10 µM unless noted
This is part of a sample that, as a whole, favours compounds with a hit. Of some 83,000 tested, about 20% had one in any assay.
recorded metric: growth (%)
Give bare numbers, in %.

Answered examples (6):
# compound, experimental result
records = [
    ("C#Cc1nc(C(C)=O)cs1", 92.5),
    ("COc1cc(OC)c(/C=C/S(=O)(=O)Cc2ccc(OC)c(NCC(=O)NO)c2)c(OC)c1", 20.2),
    ("CN(C)CCNC(=O)c1ccc(-c2nc3ccc4[nH]ncc4c3c3c2CCC3)cc1", -15.7),
    ("COc1ccc(/C=C(/C)c2ccc3ccc(OC)cc3[o+]2)c(O)c1", 58.4),
    ("c1ccc(C(c2nc3ncncc3[nH]2)N2CSc3nc4ccccc4n3C2)cc1 (stereo unspecified)", 104),
    ("COc1ccc(/C=N/NC(=O)c2cn(C3CC3)c3c(OC)c(N4CC5CCCNC5C4)c(F)cc3c2=O)cc1 (stereo unspecified)", 64.2),
]

For the 5 compounds below, give their growth values.
1. O=C(NCc1ncc[nH]1)c1ccc(-c2nc3ccc4[nH]ncc4c3c3c2CCCC3)cc1
2. CN(C)CCCOc1ccc2c(c1)CN(C(=O)c1cc(C(=O)N3Cc4cccc(F)c4C3)ccc1O)C2
3. COc1ccccc1-n1cc(C#N)c(N)c1C(=O)c1ccc(Br)cc1
4. O=C(CN1CCN(c2cc(=O)n(-c3ccccc3)c3ccccc23)CC1)Nc1nc(-c2ccc(Cl)cc2)cs1
5. Cc1cc(C)c(N2C(=O)CC(Nc3ccc(Cl)cc3Cl)C2=O)c(C)c1 (stereo unspecified)

[out]
45
98.9
92.4
36.7
99.9

---

# Tested on: MCF7 breast
# assay details: NCI-60 one-dose screen, 48 h (100 = growth as untreated, 0 = no growth, -100 = all killed)
# experimental context: 10 µM unless noted
Compounds without any hit were thinned out: in the full panel of roughly 83,000, 20% have a hit.
What growth was measured for each of the following?
Give bare numbers, in %.

Here is how some compounds turned out for growth.
# compound, growth [%]
rows = [
    ("CCNC(=O)N1CCc2cc(OC)c(OCCc3ccc(OC)nc3)cc2C1c1ccc(OC)cc1C (centres undefined)", 22.2),
    ("Oc1[nH]c2ccccc2c1Nn1c(N=N/C=c2/ccc3c(c2)C=NN=3)n[nH]c1=S", 77.1),
    ("O=C(CSc1nnc(-c2ccc3nc(-c4ccccc4)[nH]c3c2)o1)Nc1ccc(C(=O)/C=C/c2ccccc2)cc1", 87.6),
]

# batch size: 2; output growth per entry
1. Oc1ccc(CSc2nnc(-c3ccc(Cl)cc3)n2-c2ccccc2)c2cccnc12
2. CC(Nc1c(C#N)cnc2ccc(-c3cnc(N)nc3)cc12)c1ccccc1 (centres undefined)

[out]
[9.16, 8.42]

State the recorded growth for every item in the following list.
1. NC(N)=Nc1ccc(Oc2cccc(NC(N)=Nc3ccc(I)cc3F)c2)cc1
2. Cc1noc(C)c1CSc1nc2ccccc2n1-c1ccccc1

[out]
1. 63.3
2. 94.9

Take each entry in turn and give its growth.
1. Cc1nc(-c2ccccc2O)ccc1C(=O)N=Nc1c(O)[nH]c2ccc(Br)cc12
2. CCNC(=O)Oc1ccc(/C(=C(/C)c2ccccc2)c2ccc(OCCN3CCCCCC3)cc2)cc1
3. CCc1ccc(SC2c3ccc(N(CC)CC)cc3Oc3nc(N)c(C#N)c(N)c32)cc1 (centres undefined)
4. Cc1ccc2sc3c(c2c1)OC(N)=C(C#N)C3c1cccc(F)c1 (centres undefined)
5. C#Cc1nc(C(C)=O)cs1
6. Nc1nc(N)c2c(n1)NC(c1ccc(C(F)(F)F)cc1)CC(c1ccc(Nc3nc(NCCO)nc(N4CCOCC4)n3)cc1)=N2 (centres undefined)

[out]
91
7
-84.9
15.2
90.8
33.7

Below are 7 compounds. Give each one its growth.
1. COc1ccc(S(=O)(=O)NCCCNc2nccc(-c3[nH]c(-c4ccccc4)nc3-c3ccc(Cl)c(O)c3)n2)cc1
2. COc1cc(-c2nc(-c3ccccc3)[nH]c2-c2ccnc(NCCCNS(=O)(=O)c3cccc(F)c3)n2)ccc1Cl
3. COc1cc2oc(-c3cccc(N)c3)cc(=O)c2c(OC)c1OC
4. CN1CCN(c2nc(-c3csc(-c4ccccc4)n3)cc3ccccc23)CC1
5. O=C(NNc1nc2cc(F)c(F)cc2n2c(CN3CC4CNCC4C3)ccc12)c1cnccn1 (centres undefined)
6. NS(=O)(=O)c1ccc(Nc2nc(Nc3ccccc3)nc3nnc(SCC(=O)NC4CCCCC4)n23)cc1
7. COc1cc(OC)c(S(N)(=O)=O)cc1C(=O)/C=C/c1ccc(C)cc1

[out]
1: 73.2; 2: 35.3; 3: 96.3; 4: 9.31; 5: 10.9; 6: 100; 7: 12.2

Give one value of growth per listed compound.
1. Cc1nn(-c2ccccc2)c2ncnc(N/N=C/c3ccccc3)c12
2. NC(N)=Nc1ccc(Oc2cccc(NC(N)=Nc3ccc(I)cc3F)c2)cn1

[out]
[80.4, 7.64]

I would be grateful if you could provide growth for each of the following entries.
1. O=C(O)c1ccc(-n2cc(CNc3cccc(Cl)c3)c(-c3ccc(F)cc3)n2)cc1
2. COc1cc(-c2ccc3ncnc(NCc4ccccc4)c3c2)cnc1OC
3. COC[C@]12CCC(C)(C)C[C@H]1C1=CC[C@@H]3[C@@]4(C)CCCNC(C)(C)[C@@H]4CC[C@@]3(C)[C@]1(C)CC2
4. CCCCCc1ccc(S(=O)(=O)Nc2cc(-c3csc(NC(=O)CN4CCN(CCO)CC4)n3)ccc2OC)cc1
5. Nn1c(N/N=C/c2nc3ccccc3s2)n[nH]c1=S

[out]
1. 70
2. 27
3. -71
4. 6.28
5. 93.7

# per-item lookup of growth; items listed below
1. Cc1cc(C(NC(=O)CCCCCNc2cccc3c2C(=O)N(C2CCC(=O)NC2=O)C3=O)c2ccc3c(c2)OC(F)(F)O3)c(O)c2ncccc12 (centres undefined)
2. N#Cc1cccc(CN2CCC3=C(C2)C(=O)N(Cc2ccc(Cl)cc2)C2=NCCN23)c1

[out]
29.5
14.1

---

# Tested on: SNB-19 CNS
# assay details: NCI-60 one-dose screen, 48 h (100 = growth as untreated, 0 = no growth, -100 = all killed)
# experimental context: 10 µM unless noted
About 83,000 compounds went through this panel and 20% of them were active in at least one assay; those are over-represented in the sample as a whole.
For each record, write down the corresponding growth.
Give bare numbers, in %.

Consider the following items and state reported growth for each.
1. Clc1ccc(N/N=c2/oc3ccccc3cc2-c2cc3ccccc3[nH]2)cc1
2. COc1ccc(N2C(=O)c3cc(Cl)ccc3NC2SCc2ccccc2)cc1 (stereo unspecified)
3. O=C(CSc1nnc(-c2ccc(Cl)cc2)n1-c1ccccc1)Nc1ccc(Br)cc1
4. NC(=O)c1cccc(-n2ccc3cc(NC(=O)Nc4ccc(N5CCOCC5)c(C(F)(F)F)c4)ccc32)n1
5. O=C(CSc1nc2ccccc2c(=O)n1-c1ccccc1)Nc1cccc(C(=O)/C=C/c2ccccc2)c1

[out]
1. 85.4
2. 95.7
3. 35
4. 2.44
5. 85.5

Batch lookup, growth per entry.
1. C#CCOc1ccc(/C=N\Nc2nc(-c3ccc(C)cc3)cs2)cc1OC
2. COc1cc2nc(Cl)nc(Nc3cccc(C4=Nc5c(N)nc(N)nc5NC(c5ccc6c(c5)OCO6)C4)c3)c2cc1OC (stereo unspecified)
3. O=S(=O)(NCCNc1nccc(-n2cnc3ccccc32)n1)c1ccc(Br)cc1
4. CCCC(=O)NC(c1cccnc1)c1cc(C(C)(C)C)c2cccnc2c1O (stereo unspecified)
5. Cc1cc(-c2ccc(Cl)cc2)n(Cc2nnc(SCC(=O)Nc3ccc(S(N)(=O)=O)cc3)n2C2CCCCC2)n1
6. CNC1CCc2c(sc(NC(=O)c3ccc(C(C)(C)C)cc3)c2C(N)=O)C1 (stereo unspecified)

[out]
95.2
78.4
101
31.6
97.6
55.6

---

# Test system: SNB-19 CNS
# assay details: NCI-60 one-dose screen, 48 h (100 = growth as untreated, 0 = no growth, -100 = all killed)
# experimental context: 10 µM unless noted
Compounds without any hit were thinned out: in the full panel of roughly 83,000, 20% have a hit.
Grouping rule (growth): lowest = under 30%, middle = from 30% up to 90%, highest = 90% and over

Answered cases to consult:
# compound, target system, class name
records = [
    ("COc1ccc(Oc2ccc(/C=N/NC(=O)CSc3nc4ccccc4c(=O)n3-c3ccc(Cl)cc3)cc2)cc1", "SNB-19 CNS", "middle"),
    ("Nc1nc(N)c2c(n1)NC(c1ccc(C(F)(F)F)cc1)CC(c1ccc(Nc3nc(NCCO)nc(N4CCOCC4)n3)cc1)=N2 (centres undefined)", "SNB-19 CNS", "middle"),
]

[in] Form field 'band' for CN1CCN(Cc2ccc(NC(=O)c3cncc(C#Cc4cnc5ccc(OCC(C)(C)O)nn45)c3)cc2C(F)(F)F)CC1
[out] lowest

[in] Lab note: which band did CC1=N[C@@H]2CN(C(=O)OC(C)(C)C)C[C@@H]2n2c1cc1ccccc1c2=O land in?
[out] highest

[in] Please report the category associated with COc1cc(-c2nc(-c3ccccc3)[nH]c2-c2ccnc(NCCCNS(=O)(=O)c3cccc(F)c3)n2)ccc1Cl , nothing else.
[out] middle
